Origin of values: ChEMBL document CHEMBL3885861

species: Rattus norvegicus; assay: Open TG-GATES - Regimen: Daily Repeat; assay type: toxicity, organism-based, Sprague-Dawley; set-up: regimen Daily Repeat, gender Male, age 6 weeks; settings: in vivo, po, 0 mg/kg, […], tissue Blood, route gavage, dose level Control, time 28 day
Recorded Hb for the following compounds
The reply should be a number in g/dL, with the unit left off.

Look over these answered cases.
Query :: # Hb lookup, item NC(N)=Nc1nc(CSCCC(N)=NS(N)(=O)=O)cs1
Result :: 15.4

Query :: Note, next up: CCOc1ccc(NC(=O)CC(C)O)cc1 (stereo not given)
Result :: 15.3

Further cases:
Query :: # Hb lookup, item COC1=CC(=O)C[C@@H](C)[C@]12Oc1c(Cl)c(OC)cc(OC)c1C2=O
Result :: 15.2

Query :: Note, next up: CN1C(=O)CN=C(c2ccccc2)c2cc(Cl)ccc21
Result :: 15.8

Query :: Note, next up: CC1=C(/C=C/C(C)=C/C=C/C(C)=C/CO)C(C)(C)CCC1
Result :: 15.1

====

Recorded TBIL for the following compounds
species: Rattus norvegicus; assay: Open TG-GATES - Regimen: Daily Repeat; format: toxicity, organism-based, Sprague-Dawley; set-up: regimen Daily Repeat, gender Male, age 6 weeks; settings: in vivo, po, 10 mg/kg, 72 h, tissue Plasma, route gavage, dose level Low, time 3 day
The reply should be a number in mg/dL, with the unit left off.

Query :: # TBIL lookup, item CC(C)OC(=O)C(C)(C)Oc1ccc(C(=O)c2ccc(Cl)cc2)cc1 [FENOFIBRATE]
Result :: 0.04

Further cases:
Query :: # TBIL lookup, item CC1=C(/C=C/C(C)=C/C=C/C(C)=C/CO)C(C)(C)CCC1
Result :: 0.016

Query :: Note, next up: CN(C)CCCN1c2ccccc2CCc2ccccc21
Result :: 0.06

Query :: Note, next up: CN(C)CCN(Cc1cccs1)c1ccccn1
Result :: 0.006

====

Recorded WBC for the following compounds
species: Rattus norvegicus; test: Open TG-GATES - Regimen: Single; format: toxicity, organism-based, Sprague-Dawley; parameters: regimen Single, gender Male, age 6 weeks; conditions: in vivo, po, 0 mg/kg, 24 h, tissue Blood, route gavage, dose level Control
The reply should be a number in x10_2/uL, with the unit left off.

Look over these answered cases.
Query :: # WBC lookup, item CN(C)CCN(Cc1cccs1)c1ccccn1
Result :: 89.7

Query :: Note, next up: O=C(CCCN1CCC(O)(c2ccc(Cl)cc2)CC1)c1ccc(F)cc1 [HALOPERIDOL]
Result :: 82.8

Query :: Note, next up: NNC(=O)c1ccncc1 [ISONIAZID]
Result :: 106

Further cases:
Query :: # WBC lookup, item CC/C(=C(\c1ccccc1)c1ccc(OCCN(C)C)cc1)c1ccccc1 [TAMOXIFEN]
Result :: 89.9

Query :: Note, next up: CC1=C(/C=C/C(C)=C/C=C/C(C)=C/CO)C(C)(C)CCC1 [RETINOL]
Result :: 85.8

Query :: Note, next up: CCCNC(=O)NS(=O)(=O)c1ccc(Cl)cc1 [CHLORPROPAMIDE]
Result :: 102.7

Query :: Note, next up: CCOc1ccc(NC(=O)CC(C)O)cc1 (configuration not stated) [BUCETIN]
Result :: 102.9

====

organism: Rattus norvegicus; assay: Open TG-GATES - Regimen: Daily Repeat; type: toxicity, organism-based, Sprague-Dawley; parameters: regimen Daily Repeat, gender Male, age 6 weeks; conditions: in vivo, po, 1000 mg/kg, 72 h, tissue Plasma, route gavage, dose level High, time 3 day
resultType: TBIL (mg/dL)
The reply should be a number in mg/dL, with the unit left off.

Look over these answered cases.
Query :: # TBIL lookup, item CCOC(=O)CCC(=O)O[C@H]1[C@H](O[C@@H]2[C@@H](C)[C@H](O[C@H]3C[C@@](C)(OC)[C@@H](O)[C@H](C)O3)[C@@H](C)C(=O)O[C@H](CC)[C@@](C)(O)[C@H](O)[C@@H](C)C(=O)[C@H](C)C[C@@]2(C)O)O[C@H](C)C[C@@H]1N(C)C [ERYTHROMYCIN ETHYLSUCCINATE]
Result :: 0.032

Query :: Note, next up: NC(N)=Nc1nc(CSCCC(N)=NS(N)(=O)=O)cs1 [FAMOTIDINE]
Result :: 0.1

Query :: Note, next up: COC1=CC(=O)C[C@@H](C)[C@]12Oc1c(Cl)c(OC)cc(OC)c1C2=O [GRISEOFULVIN]
Result :: 0.1

Query :: Note, next up: CC(C)OC(=O)C(C)(C)Oc1ccc(C(=O)c2ccc(Cl)cc2)cc1 [FENOFIBRATE]
Result :: 0.048

Query :: Note, next up: COc1ccc2[nH]c([S+]([O-])Cc3ncc(C)c(OC)c3C)nc2c1 (stereo unspecified) [OMEPRAZOLE]
Result :: 0.2

Now examine the next entry.
Query :: # TBIL lookup, item CCOc1ccc(NC(=O)CC(C)O)cc1 (stereo unspecified) [BUCETIN]
Result :: 0.06

====

Recorded KIDNEY_L for the following compounds
organism: Rattus norvegicus; experiment: Open TG-GATES - Regimen: Daily Repeat; format: toxicity, organism-based, Sprague-Dawley; parameters: regimen Daily Repeat, gender Male, age 6 weeks; settings: in vivo, po, 10 mg/kg, […], tissue Kidney, route gavage, dose level Low, time 28 day
The reply should be a number in g, with the unit left off.

Look over these answered cases.
Query :: # KIDNEY_L lookup, item CN(C)CCN(Cc1cccs1)c1ccccn1
Result :: 1.2

Query :: Note, next up: CN(C)CCCN1c2ccccc2CCc2ccccc21
Result :: 1.4

Query :: Note, next up: CC(C)OC(=O)C(C)(C)Oc1ccc(C(=O)c2ccc(Cl)cc2)cc1 [FENOFIBRATE]
Result :: 1.5

Further cases:
Query :: # KIDNEY_L lookup, item CC1=C(/C=C/C(C)=C/C=C/C(C)=C/CO)C(C)(C)CCC1
Result :: 1.3

====

species: Rattus norvegicus; assay: Open TG-GATES - Regimen: Single; format: toxicity, organism-based, Sprague-Dawley; set-up: regimen Single, gender Male, age 6 weeks; settings: in vivo, po, 30 mg/kg, 3 h, tissue Plasma, route gavage, dose level Middle
Recorded RALB for the following molecules
Respond with a number, then the unit of measure.

Query :: # RALB lookup, item CN(C)CCCN1c2ccccc2CCc2ccc(Cl)cc21 [CLOMIPRAMINE]
Result :: 2.5 g/dL

Query :: Note, next up: CN(C)CCCN1c2ccccc2CCc2ccccc21 [IMIPRAMINE]
Result :: 2.6 g/dL

Query :: Note, next up: CN(C)CCN(Cc1cccs1)c1ccccn1
Result :: 3 g/dL

Further cases:
Query :: # RALB lookup, item CC1=C(/C=C/C(C)=C/C=C/C(C)=C/CO)C(C)(C)CCC1 [RETINOL]
Result :: 3.1 g/dL

====

species: Rattus norvegicus; assay: Open TG-GATES - Regimen: Single; assay type: toxicity, organism-based, Sprague-Dawley; parameters: regimen Single, gender Male, age 6 weeks; details: in vivo, po, 1000 mg/kg, 9 h, tissue Plasma, route gavage, dose level High
resultType: ALP
Respond with a number, then the unit of measure.

Look over these answered cases.
Query :: # ALP lookup, item CC(C)OC(=O)C(C)(C)Oc1ccc(C(=O)c2ccc(Cl)cc2)cc1 [FENOFIBRATE]
Result :: 1470.4 IU/L

Query :: Note, next up: COc1ccc2[nH]c([S+]([O-])Cc3ncc(C)c(OC)c3C)nc2c1 (stereo not given) [OMEPRAZOLE]
Result :: 705 IU/L

Query :: Note, next up: CCOC(=O)CCC(=O)O[C@H]1[C@H](O[C@@H]2[C@@H](C)[C@H](O[C@H]3C[C@@](C)(OC)[C@@H](O)[C@H](C)O3)[C@@H](C)C(=O)O[C@H](CC)[C@@](C)(O)[C@H](O)[C@@H](C)C(=O)[C@H](C)C[C@@]2(C)O)O[C@H](C)C[C@@H]1N(C)C [ERYTHROMYCIN ETHYLSUCCINATE]
Result :: 1688.2 IU/L

Query :: Note, next up: COC1=CC(=O)C[C@@H](C)[C@]12Oc1c(Cl)c(OC)cc(OC)c1C2=O [GRISEOFULVIN]
Result :: 1031 IU/L

Further cases:
Query :: # ALP lookup, item NC(N)=Nc1nc(CSCCC(N)=NS(N)(=O)=O)cs1 [FAMOTIDINE]
Result :: 861.4 IU/L

====

organism: Rattus norvegicus; experiment: Open TG-GATES - Regimen: Single; format: toxicity, organism-based, Sprague-Dawley; parameters: regimen Single, gender Male, age 6 weeks; settings: in vivo, po, 100 mg/kg, 6 h, tissue Blood, route gavage, dose level High
resultType: Eos (%)
The reply should be a number in %, with the unit left off.

Query :: # Eos lookup, item CC1=C(/C=C/C(C)=C/C=C/C(C)=C/CO)C(C)(C)CCC1 [RETINOL]
Result :: 1

Further cases:
Query :: # Eos lookup, item CN(C)CCCN1c2ccccc2CCc2ccccc21 [IMIPRAMINE]
Result :: 0.8

Query :: Note, next up: CN(C)CCN(Cc1cccs1)c1ccccn1
Result :: 0.4

Query :: Note, next up: CN(C)CCCN1c2ccccc2CCc2ccc(Cl)cc21 [CLOMIPRAMINE]
Result :: 1
